Biological target: Horseradish peroxidase (HRP) (Armoracia rusticana)
Construct: purchased Sigma Chemical Corporation Type VI
Sequence (P00433 31-338 limits assumed): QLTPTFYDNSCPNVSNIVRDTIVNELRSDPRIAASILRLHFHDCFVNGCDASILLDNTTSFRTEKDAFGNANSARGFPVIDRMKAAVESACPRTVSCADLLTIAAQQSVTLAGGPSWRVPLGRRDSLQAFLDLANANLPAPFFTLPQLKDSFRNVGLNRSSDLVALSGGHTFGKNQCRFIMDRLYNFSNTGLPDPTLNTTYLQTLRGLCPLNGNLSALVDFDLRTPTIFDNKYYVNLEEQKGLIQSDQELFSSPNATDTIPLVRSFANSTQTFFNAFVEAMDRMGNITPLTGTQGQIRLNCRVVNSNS
Assay: Reducing substrate specificity assay (HRP-catalysed reduction of PPHP to PPA, HPLC)
Type: biochemical
Conditions: 60 nM HRP, 200 microM reducing substrate, 100 microM PPHP, 0.1 M potassium citrate pH 5.5, 0.2 mM Tween-20, 25° C., 6 minutes, triplicate
Experimental: Incubations were performed in triplicate with a 25° C. shaker bath in 16×150 mm disposable glass test tubes. […] Quantitation was determined by adding an internal standard (p-nitrobenzyl alcohol: annotated as I.S. on chromatograms) and ratioing peak areas. […] Analyte concentrations were calculated by an internal standard method of calculation. […]
# Index = concentration PPA/(concentration PPA+concentration PPHP) per record follows
ENDPOINT_NAME: Index = concentration PPA/(concentration PPA+concentration PPHP)

N[C@@H](Cc1c[nH]c2ccccc12)C(=O)O [Tryptophan, 1-tryptophan]    0.13
Cc1cc(C(C)(C)C)c(O)c(C(C)(C)C)c1 [BHT, butylated hydroxytoluene]    0.19
NC(=O)C1=CN([C@@H]2O[C@H](COP(=O)(O)OP(=O)(O)OC[C@H]3O[C@@H](n4cnc5c(N)ncnc54)[C@H](OP(=O)(O)O)[C@@H]3O)[C@@H](O)[C@H]2O)C=CC1 [NADPH]    0.06
Oc1ccccc1 [Phenol, phenol]    0.97
Oc1cccc(O)c1O [Pyrogallol, pyrogallol]    0.97
[I-].[K+] [Iodide, potassium iodide]    0.97
Nc1ccccc1 [Aniline, aniline]    0.97
O=c1[nH]c(=O)c2[nH]c(=O)[nH]c2[nH]1 [Uric Acid, uric acid]    0.96
CCN(CC)C(=S)S [Diethyldithiocarbamate, diethyldithiocarbamic acid]    0.72
CNC[C@H](O)c1ccc(O)c(O)c1 [Epinephrin, d,1-epinephrine]    0.39
N[C@@H](CS)C(=O)O [Cysteine, 1-cysteine]    0.06
COc1ccc(O)c(C(C)(C)C)c1 [BHA, butylated hydroxyanisole]    0.56
